Provide the recorded IC50 at 72 h for the entries that follow.
# run-description: Antiproliferative activity against human BEAS-2B cells assessed as inhibition of cell growth measured after 72 hrs by MTT assay
# Type: toxicity, cell-based
The response must be a number in nM with no trailing unit.

Using the record for OCCCCCCCCCC[P+](c1ccccc1)(c1ccccc1)c1ccccc1.[Br-] , report its IC50 at 72 h. 1140

Using the record for OCCCCCCCCCC[P+](c1ccc(C(F)(F)F)cc1)(c1ccc(C(F)(F)F)cc1)c1ccc(C(F)(F)F)cc1.[Br-] , report its IC50 at 72 h. 6900

Using the record for Cc1ccc([P+](CCCCCCCCCCO)(c2ccc(C)cc2)c2ccc(C)cc2)cc1.[Br-] , report its IC50 at 72 h. 1420

---

# Test system: A549
# run-description: Antiproliferative activity against human A549 cells assessed as inhibition of cell growth measured after 72 hrs by MTT assay
# Type: functional, cell-based
# measurement-parameters: A549, 72 h
observation-type: IC50
State the value, then name its unit.

Using the record for Cc1ccc([P+](CCCCCCCCCCO)(c2ccc(C)cc2)c2ccc(C)cc2)cc1.[Br-] , report its IC50. 490 nM

Using the record for OCCCCCCCCCC[P+](c1ccc(C(F)(F)F)cc1)(c1ccc(C(F)(F)F)cc1)c1ccc(C(F)(F)F)cc1.[Br-] , report its IC50. 6120 nM

Using the record for OCCCCCCCCCC[P+](c1ccccc1)(c1ccccc1)c1ccccc1.[Br-] , report its IC50. 1070 nM

---

# Test system: A-375
# run-description: Anticancer activity against human A-375 cells assessed as inhibition of cell growth by MTT assay
# Assay type: functional, cell-based
Provide the recorded IC50 for the entries that follow.
The response must be a number in nM with no trailing unit.

Using the record for O=C(CCCCC(CCSCc1ccccc1)SCc1ccccc1)OCCCCCCCCCC[P+](c1ccccc1)(c1ccccc1)c1ccccc1 (stereo not given) , report its IC50. 100

Using the record for OCCCCCCCCCC[P+](c1ccccc1)(c1ccccc1)c1ccccc1.[Br-] , report its IC50. 410

Using the record for O=C(CCCCC(CCSCc1ccccc1)SCc1ccccc1)OCCCCC[P+](c1ccccc1)(c1ccccc1)c1ccccc1 (stereo not given) , report its IC50. 4150

---

# System: NCI-H460
# run-description: Antiproliferative activity against human NCI-H460 cells assessed as inhibition of cell growth measured after 72 hrs by MTT assay
# Format: functional, cell-based
# measurement-parameters: NCI-H460, 72 h
observation-type: IC50 (nM)
The response must be a number in nM with no trailing unit.

Using the record for OCCCCCCCCCC[P+](c1ccccc1)(c1ccccc1)c1ccccc1.[Br-] , report its IC50. 950

Using the record for Cc1ccc([P+](CCCCCCCCCCO)(c2ccc(C)cc2)c2ccc(C)cc2)cc1.[Br-] , report its IC50. 110

Using the record for OCCCCCCCCCC[P+](c1ccc(C(F)(F)F)cc1)(c1ccc(C(F)(F)F)cc1)c1ccc(C(F)(F)F)cc1.[Br-] , report its IC50. 3090

---

# Tested on: A-375
# run-description: Antiproliferative activity against human A-375 cells assessed as inhibition of cell growth measured after 72 hrs by MTT assay
# Type: functional, cell-based
# measurement-parameters: A-375, 72 h
observation-type: IC50 (nM)
The response must be a number in nM with no trailing unit.

Query for A-375: what IC50 does the record show for OCCCCCCCCCC[P+](c1ccccc1)(c1ccccc1)c1ccccc1.[Br-] ? 410

Query for A-375: what IC50 does the record show for Cc1ccc([P+](CCCCCCCCCCO)(c2ccc(C)cc2)c2ccc(C)cc2)cc1.[Br-] ? 140

Query for A-375: what IC50 does the record show for OCCCCCCCCCC[P+](c1ccc(C(F)(F)F)cc1)(c1ccc(C(F)(F)F)cc1)c1ccc(C(F)(F)F)cc1.[Br-] ? 5400
